B1: PHTF1 (parent)
chain: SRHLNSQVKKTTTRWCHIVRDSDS

Variants of: B1
Assay: protein stability index of a GFP-peptide fusion (GPS, HEK-293T) (PSI 1-6); higher = more stable;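 note: lentivirally expressed fusions sorted by FACS into six bins by GFP to DsRed ratio, PSI derived from sequencing read proportions per bin multiplied by bin number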
Settings: c terminus: a fixed tail appended
measured-endpoint: protein stability index
One number for each entry.

{"columns": ["changes", "protein stability index"],
 "data": [
  ["L4V", 2.03],
  ["S24F", 2.04],
  ["C16R", 2.86],
  ["R14L", 2.14],
  ["R14I", 1.94],
  ["R2E", 2.35]
]}

Would you be so kind as to report protein stability index for each listed record?
1. S24G
2. N5W
3. D23A
4. D23M
5. R20W
6. V8F

[reply]
1: 2.13; 2: 2.27; 3: 2.59; 4: 2.19; 5: 1.57; 6: 2.57

Would you mind listing protein stability index for each of the following variants?
1. T11F
2. R14N
3. S1I
4. I18A
5. T11M
6. T12R
7. K9A

[reply]
[1.94, 2.94, 1.23, 2.43, 2.39, 2.09, 2.48]
